Source of measurements: patent US20260138985A1

# procedure-details: Metabolic stability in human liver microsomes
# Assay type: in vitro ADME
# settings: pH 7.4, intrinsic clearance, values marked * average of two experiments, read-out: CLint(mic)
# Procedure: Microsomal Assay: Human liver microsomes (20 mg/mL) are obtained from Xenotech, LLC (Lenexa, KS). β-nicotinamide adenine dinucleotide phosphate, reduced form (NADPH), magnesium chloride (MgCl2), and dimethyl sulfoxide (DMSO) are purchased from Sigma-Aldrich. […] Data analysis: The in vitro Ti/s for test compounds are calculated from the slopes of the linear regression of % parent remaining (In) vs incubation time relationship. […]
property-measured: microsomal CLint at 0.2 μM

Solved entries (count: 4):
compound	microsomal CLint at 0.2 μM
COc1ccc2c3c([nH]c2c1)CCNCC3 [reference compound]	12.7 µL/min/mg
[2H]C([2H])([2H])Oc1ccc2c3c([nH]c2c1)CCNCC3 [Compound 163]	16.1 µL/min/mg
COc1ccc2c3c([nH]c2c1)CCN(C)CC3 [TBG, reference compound]	15.6 µL/min/mg
[2H]C([2H])([2H])Oc1ccc2c3c([nH]c2c1)CCN(C)CC3 [Compound 1]	17.2 µL/min/mg

Dear colleague, could you send me microsomal CLint at 0.2 μM for each of the items below? Thanks.
1. C[C@]12CC[C@H]3[C@@H](CCC4=CC(=O)CC[C@@]43C)[C@@H]1CC[C@@H]2O [Testosterone, reference compound]
2. [2H]C([2H])([2H])N1CCc2[nH]c3cc(OC)ccc3c2CC1 [Compound 2]
3. [2H]C([2H])([2H])Oc1ccc2c3c([nH]c2c1)CCN(C([2H])([2H])[2H])CC3 [Compound 3]

RESULT:
1: 114 µL/min/mg; 2: 16.6 µL/min/mg; 3: 16.8 µL/min/mg
